system: KRAS PDC multicell spheroid viability; assay: Anticancer human tumor 825966-067-R-J1-PDC patient-derived colon carcinoma cell line growth inhibition [KRAS2]; conditions: second compound 1 µM; first compound 0.000316 µM; stronger effect = lower value;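 further: spheroids exposed to compounds for 7 days; 100% = DMSO vehicle control viability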
Hi there, I'd appreciate the recorded viability, T/C for every entry that follows.
Answers are plain numbers, in %.

Record excerpt, results attached:
| compound | outcome_measure | numeric_value |
| --- | --- | --- |
| CN(C)C/C=C/C(=O)Nc1cc2c(Nc3ccc(F)c(Cl)c3)ncnc2cc1O[C@H]1CCOC1 + COc1cc2nc(C)nc(NC(C)c3cc(N)cc(C(F)(F)F)c3)c2cc1OC1CCOC1 | viability, T/C | 92.2 |
| Cn1ncnc1[C@H]1c2n[nH]c(=O)c3cc(F)cc(c23)N[C@@H]1c1ccc(F)cc1 + C=CC(=O)N1CCN(c2nc(OCC3CCCN3C)nc3c2CCN(c2cccc4cccc(C)c24)C3)CC1CC#N | viability, T/C | 127 |
| CC(=O)Nc1cccc(-n2c(=O)n(C3CC3)c(=O)c3c(Nc4ccc(I)cc4F)n(C)c(=O)c(C)c32)c1 + C=CC(=O)N1CCN(c2nc(OCC3CCCN3C)nc3c2CCN(c2cccc4cccc(C)c24)C3)CC1CC#N | viability, T/C | 95 |
| Cn1ncnc1[C@H]1c2n[nH]c(=O)c3cc(F)cc(c23)N[C@@H]1c1ccc(F)cc1 + COc1cc2nc(C)nc(NC(C)c3cc(N)cc(C(F)(F)F)c3)c2cc1OC1CCOC1 | viability, T/C | 86.3 |
| CC(=O)Nc1cccc(-n2c(=O)n(C3CC3)c(=O)c3c(Nc4ccc(I)cc4F)n(C)c(=O)c(C)c32)c1 + CC1OCC2(CCN(c3cnc(Sc4ccnc(N)c4Cl)c(N)n3)CC2)C1N | viability, T/C | 128 |
| CN(C)C/C=C/C(=O)Nc1cc2c(Nc3ccc(F)c(Cl)c3)ncnc2cc1O[C@H]1CCOC1 + C=CC(=O)N1CCN(c2nc(OCC3CCCN3C)nc3c2CCN(c2cccc4cccc(C)c24)C3)CC1CC#N | viability, T/C | 94.7 |
| CC(=O)Nc1cccc(-n2c(=O)n(C3CC3)c(=O)c3c(Nc4ccc(I)cc4F)n(C)c(=O)c(C)c32)c1 + C=CC(=O)N1CCN(c2nc(=O)n(-c3c(C)ccnc3C(C)C)c3nc(-c4c(O)cccc4F)c(F)cc23)C(C)C1 | viability, T/C | 89.4 |
| CC(=O)Nc1cccc(-n2c(=O)n(C3CC3)c(=O)c3c(Nc4ccc(I)cc4F)n(C)c(=O)c(C)c32)c1 + CNCc1ccccc1-c1csc(C(C)Nc2nc(C)nc3cc(OC)c(OC)cc23)c1 | viability, T/C | 98.2 |
| CC(C)n1nc(-c2ccc3oc(N)nc3c2)c2c(N)ncnc21 + COc1cc2nc(C)nc(NC(C)c3cc(N)cc(C(F)(F)F)c3)c2cc1OC1CCOC1 | viability, T/C | 100 |
| CC(C)n1nc(-c2ccc3oc(N)nc3c2)c2c(N)ncnc21 + CNCc1ccccc1-c1csc(C(C)Nc2nc(C)nc3cc(OC)c(OC)cc23)c1 | viability, T/C | 131 |

For the next question, use this compound.
Input: Provide only the value of recorded viability, T/C for CN(C)C/C=C/C(=O)Nc1cc2c(Nc3ccc(F)c(Cl)c3)ncnc2cc1O[C@H]1CCOC1 + CC1OCC2(CCN(c3cnc(Sc4ccnc(N)c4Cl)c(N)n3)CC2)C1N
Output: 104
